Test: Terpene concentration (HPLC, GC-FID)
Type: physicochemical
Details: terpene content of hemp distillate + alpha-pinene lipid nanoparticle formulation (Example 34), diluted to theoretical 12 mg/mL CBD
READOUT: Measured Concentration (w/w %) of terpene

> print(dat)
                                   compound  recorded.result
1  C=CC(C)(O)CC/C=C(\C)CCC=C(C)C (stereo not drawn) [trans-Nerolidol]             <LOQ
2                         C=CC(=C)CCC=C(C)C             <LOQ
3      C=C1CCC2CC1C2(C)C (stereo not drawn)           0.003%
4                       CC(C)=CCC/C(C)=C/CO             <LOQ
5          C=C(C)[C@@H]1CC[C@@H](C)C[C@H]1O             <LOQ
6  C=CC(C)(O)CC/C=C(/C)CCC=C(C)C (stereo not drawn) [cis-Nerolidol]             <LOQ

* * *

Assay: Terpene concentration (HPLC, GC-FID)
Type: physicochemical
Conditions: terpene content of hemp distillate + alpha-pinene lipid nanoparticle formulation (Example 34), diluted to theoretical 12 mg/mL CBD
Listed here are compounds together with their documented Measured Concentration (w/w %) of terpene.
READOUT: Measured Concentration (w/w %) of terpene

> print(dat)
                                   compound  recorded.result
1  C[C@H]1CC[C@@H](C(C)(C)O)CC2=C1CC[C@@H]2C [alpha-Guaiol]            0.002
2  C=C1C2CCC(C2)C1(C)C (centres unmarked) [Camphene]            0.005
3  CC1=CCC2CC1C2(C)C (stereo not drawn) [alpha-Pinene]            0.521
4  CC(C)=CCC[C@](C)(O)[C@@H]1CC=C(C)CC1 [alpha-Bisabolol]            0.006
5  C=C1CC/C=C(\C)CC[C@@H]2[C@@H]1CC2(C)C [Beta-Caryophyllene]            0.003

* * *

Assay: Terpene concentration (HPLC, GC-FID)
Format: physicochemical
Details: terpene content of hemp distillate + alpha-pinene lipid nanoparticle formulation (Example 34), diluted to theoretical 12 mg/mL CBD
Description: A 5 Liter manufacturing batch was analyzed by high pressure liquid chromatography (HPLC) to measure Terpenes present in the sample. When all ingredients were dissolved, the solvent was removed to form a dried composition. The resulting particle size and zeta potential were determined using a Malvern ZetaSizer and cannabinoid concentrations were determined by UPLC. Terpene concentrations were determined by GC-FID.
READOUT: Measured Concentration (mg/g) of terpene

> print(dat)
                                    compound                                   readout  recorded.result
 1  C=C1CC[C@H]2O[C@]2(C)CC[C@@H]2[C@@H]1CC2(C)C [Caryophyllene Oxide]  Measured Concentration (mg/g) of terpene             <LOQ
 2      C=C1CCC2CC1C2(C)C (stereo not shown)  Measured Concentration (mg/g) of terpene       0.026 mg/g
 3                          Cc1ccc(C(C)C)cc1  Measured Concentration (mg/g) of terpene             <LOQ
 4    C=CC(C)(O)CCC=C(C)C (stereo not shown)  Measured Concentration (mg/g) of terpene             <LOQ
 5    C=C1C2CCC(C2)C1(C)C (stereo not shown)  Measured Concentration (mg/g) of terpene       0.046 mg/g
 6                       C=C/C(C)=C\CC=C(C)C  Measured Concentration (mg/g) of terpene             <LOQ
 7  C=CC(C)(O)CC/C=C(\C)CCC=C(C)C (stereo not drawn) [trans-Nerolidol]  Measured Concentration (mg/g) of terpene             <LOQ
 8      CC1=CCC2CC1C2(C)C (stereo not shown)  Measured Concentration (mg/g) of terpene       5.205 mg/g
 9                         C=CC(=C)CCC=C(C)C  Measured Concentration (mg/g) of terpene             <LOQ
10                       CC(C)=CCC/C(C)=C/CO  Measured Concentration (mg/g) of terpene             <LOQ
11      CC(C)=CCC[C@](C)(O)[C@@H]1CC=C(C)CC1  Measured Concentration (mg/g) of terpene       0.062 mg/g
12                        CC1=CCC(=C(C)C)CC1  Measured Concentration (mg/g) of terpene             <LOQ
13                     CC12CCC(CC1)C(C)(C)O2  Measured Concentration (mg/g) of terpene             <LOQ
14  C[C@H]1CC[C@@H](C(C)(C)O)CC2=C1CC[C@@H]2C  Measured Concentration (mg/g) of terpene       0.023 mg/g
15                        CC1=CCC(C(C)C)=CC1  Measured Concentration (mg/g) of terpene             <LOQ
16          C=C(C)[C@@H]1CC[C@@H](C)C[C@H]1O  Measured Concentration (mg/g) of terpene             <LOQ
17                    C=C(C)[C@H]1CC=C(C)CC1  Measured Concentration (mg/g) of terpene             <LOQ
18     C=C1CC/C=C(\C)CC[C@@H]2[C@@H]1CC2(C)C  Measured Concentration (mg/g) of terpene       0.026 mg/g
19          C/C1=C\CC/C(C)=C/CC(C)(C)/C=C/C1  Measured Concentration (mg/g) of terpene             <LOQ
20                       C=C/C(C)=C/CC=C(C)C  Measured Concentration (mg/g) of terpene             <LOQ
21    CC1=CCC2C(C1)C2(C)C (stereo not shown)  Measured Concentration (mg/g) of terpene             <LOQ
22  C=CC(C)(O)CC/C=C(/C)CCC=C(C)C (stereo not drawn) [cis-Nerolidol]  Measured Concentration (mg/g) of terpene             <LOQ
